Parameter: logP. Scope: all listed entries.
assay overview: Lipophilicity, logP of compound
Type: physicochemical
condition info: octanol/water
Reply briefly: the number, and no unit.

O=C1NC(=O)/C(=C/c2ccc(OCc3ccc(Cl)cc3)cc2)S1: 3.53

IN: Consider the compound `Cc1ccc(COc2ccc(/C=C3\SC(O)=NC3=O)cc2)cc1` and give its measured logP.
OUT: 3.33

IN: Here is the next compound: `N#Cc1ccccc1-c1ccc(COc2ccc(/C=C3\SC(=O)NC3=O)cc2)cc1`
OUT: 4.94

IN: Here is the next compound: `O=C1NC(=O)/C(=C/c2ccc(OCc3ccccc3)cc2)S1`
OUT: 3

----------
system tested: Peroxisome proliferator-activated receptor gamma (Homo sapiens)
Sequence (whole entry): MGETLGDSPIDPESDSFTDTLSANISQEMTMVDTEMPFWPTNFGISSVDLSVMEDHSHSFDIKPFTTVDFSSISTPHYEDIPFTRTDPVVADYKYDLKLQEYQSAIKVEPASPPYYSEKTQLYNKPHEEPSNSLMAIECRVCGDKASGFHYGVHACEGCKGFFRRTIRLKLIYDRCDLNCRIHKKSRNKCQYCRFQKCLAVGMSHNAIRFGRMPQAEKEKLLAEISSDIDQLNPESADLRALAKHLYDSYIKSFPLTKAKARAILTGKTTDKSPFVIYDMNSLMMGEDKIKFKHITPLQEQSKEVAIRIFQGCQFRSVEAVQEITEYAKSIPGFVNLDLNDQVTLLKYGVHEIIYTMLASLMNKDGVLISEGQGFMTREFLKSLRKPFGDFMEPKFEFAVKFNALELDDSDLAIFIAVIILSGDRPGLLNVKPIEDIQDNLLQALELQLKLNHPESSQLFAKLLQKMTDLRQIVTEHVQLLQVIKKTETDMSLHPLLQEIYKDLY
assay overview: Binding affinity to PPARgamma (unknown origin) assessed as change in binding free energy
condition info: filed as modulator
Parameter: deltaG. Scope: all listed entries.
Reply briefly: the number, and no unit.

N#Cc1ccccc1-c1ccc(COc2ccc(/C=C3\SC(=O)NC3=O)cc2)cc1: -7.84
O=C1NC(=O)/C(=C/c2ccc(OCc3ccc(Cl)cc3)cc2)S1: -7.69
O=C1N=C(O)S/C1=C\c1ccc(OCc2ccccc2)cc1: -7.43

Moving on to another compound below.
IN: Hello, I am looking for reported deltaG with Peroxisome proliferator-activated receptor gamma (Homo sapiens) for `Cc1ccc(COc2ccc(/C=C3\SC(O)=NC3=O)cc2)cc1` . Could you help?
OUT: -7.72
